# Test system: Human immunodeficiency virus 1
# ASSAY COMMENT: Antiviral activity against wild type HIV1 NL4-3 in human HeLaP4 cells assessed as beta-galactosidase activity after 48 hrs
# Format: functional, organism-based
# CONDITION SUMMARY: helap4
METRIC NAME: pEC50
Bear in mind: pEC50 is minus log10 of a mol/L concentration; give just that figure.

For the compound CCOC(=O)c1c(OC2CC(C)CC(C)C2)c(CC)c(C)[nH]c1=O (stereo in doubt; 10) , what pEC50 is on record? 7.37

* * *

# System: Human immunodeficiency virus 1
# ASSAY COMMENT: Antiviral activity against HIV1 NL4-3 with Y181C mutant in human TZM-b1 cells assessed as beta-galactosidase activity after 48 hrs by single round replication assay
# Assay type: functional, organism-based
# CONDITION SUMMARY: Human immunodeficiency virus 1, NL4-3, TZM-b1, 48 h
The following molecules are shown together with reported log10 EC50 values.
// units: nM (pre-log); metric: EC50; scale: log10

Here is how some molecules turned out for log10 EC50.
[
  {
    "STRUCTURE AS SMILES": "CCc1c(C)[nH]c(=O)c(N(C)C)c1O[C@@H]1C[C@H](C)C[C@H](C)C1",
    "SUBJECT OF TEST": "Human immunodeficiency virus 1",
    "log10 EC50": 2.25
  },
  {
    "STRUCTURE AS SMILES": "CCc1c(C)[nH]c(=O)c([N+](=O)[O-])c1O[C@@H]1C[C@H](C)C[C@H](C)C1",
    "SUBJECT OF TEST": "Human immunodeficiency virus 1",
    "log10 EC50": 2.45
  }
]

Pending molecule:
For the molecule `CCc1c(C)[nH]c(=O)c(C)c1O[C@@H]1C[C@H](C)C[C@H](C)C1` , what log10 EC50 is on record? 2.95

* * *

# ASSAY COMMENT: Selectivity index, ratio of CC50 for human HeLaP4 cells to EC50 for HIV1 NL4-3
# Type: toxicity, cell-based
# CONDITION SUMMARY: read-out: Ratio CC50/EC50
METRIC NAME: selectivity ratio
Reply briefly: the number, and no unit.

Here is how some molecules turned out for selectivity ratio.
[
  {
    "MOLECULE": "CCOC(=O)c1c(OC2CC(C)(C)CC(C)(C)C2)c(CC)c(C)[nH]c1=O",
    "RESULT NUMBER": 112
  },
  {
    "MOLECULE": "CCOC(=O)c1c(OC2C(C)CCCC2C)c(CC)c(C)[nH]c1=O (stereo not drawn)",
    "RESULT NUMBER": 78
  },
  {
    "MOLECULE": "CCc1c(C)[nH]c(=O)c(N)c1O[C@@H]1C[C@H](C)C[C@H](C)C1",
    "RESULT NUMBER": 83
  }
]

For the molecule `CCOC(=O)c1c(O[C@@H]2C[C@H](C)C[C@H](C)C2)c(CC)c(C)[nH]c1=O` , what selectivity ratio is on record? 1780

Next entry: CCOC(=O)c1c(OC2CCCC(C)C2)c(CC)c(C)[nH]c1=O (stereo not drawn) 192

Next entry: CCOC(=O)c1c(OC2CCCC(C)C2C)c(CC)c(C)[nH]c1=O (stereo not drawn) 2620

* * *

# SUBJECT OF TEST: Human immunodeficiency virus type 1 reverse transcriptase (Human immunodeficiency virus 1)
# ASSAY COMMENT: Inhibition of recombinant HIV1 reverse transcriptase assessed as residual activity at 10 uM by […] incorporation assay relative to control
METRIC NAME: Activity (%)
Write the number in % without appending the unit.

[
  {
    "STRUCTURE AS SMILES": "CCOC(=O)c1c(OC2CCCC2)c(CC)c(C)[nH]c1=O",
    "Activity (%)": 58.6
  },
  {
    "STRUCTURE AS SMILES": "CCOC(=O)c1c(OC2CCCCCCC2)c(CC)c(C)[nH]c1=O",
    "Activity (%)": 24
  },
  {
    "STRUCTURE AS SMILES": "CCOC(=O)c1c(OC2CCCCC2)c(CC)c(C)[nH]c1=O",
    "Activity (%)": 44.7
  }
]

For the molecule `CCOC(=O)c1c(OC2CCCCCC2)c(CC)c(C)[nH]c1=O` , what Activity is on record? 34.6

* * *

# System: Human immunodeficiency virus 1
# ASSAY COMMENT: Antiviral activity against HIV1 NL4-3 with K103N/V108I double mutant in human TZM-b1 cells assessed as beta-galactosidase activity after 48 hrs by single round replication assay
# CONDITION SUMMARY: Human immunodeficiency virus 1, NL4-3, TZM-b1, 48 h
METRIC NAME: pEC50
Bear in mind: pEC50 is minus log10 of a mol/L concentration; give just that figure.

Here is how some compounds turned out for pEC50.
[
  {
    "STRUCTURE AS SMILES": "O=C1Nc2ccc(Cl)cc2[C@@](C#CC2CC2)(C(F)(F)F)O1",
    "SUBJECT OF TEST": "Human immunodeficiency virus 1",
    "pEC50": 7.47
  },
  {
    "STRUCTURE AS SMILES": "CCc1c(C)[nH]c(=O)c(C(C)C)c1O[C@@H]1C[C@H](C)C[C@H](C)C1",
    "SUBJECT OF TEST": "Human immunodeficiency virus 1",
    "pEC50": 6.98
  }
]

For the compound `CCc1c(C)[nH]c(=O)c(CC)c1O[C@@H]1C[C@H](C)C[C@H](C)C1` , what pEC50 is on record? 6.97

Next entry: `CCc1c(C)[nH]c(=O)c(CN=[N+]=[N-])c1O[C@@H]1C[C@H](C)C[C@H](C)C1` 5.36

Next entry: `CCc1c(C)[nH]c(=O)c(C)c1O[C@@H]1C[C@H](C)C[C@H](C)C1` 5.29

Next entry: `CCc1c(C)[nH]c(=O)c(Br)c1O[C@@H]1C[C@H](C)C[C@H](C)C1` 6.11

* * *

# ASSAY COMMENT: Selectivity index, ratio of CC50 for human TZM-b1 cells to EC50 for HIV1 NL4-3
# Format: toxicity, cell-based
# CONDITION SUMMARY: read-out: Ratio CC50/EC50
METRIC NAME: selectivity ratio

[
  {
    "COMPOUND": "CCc1c(C)[nH]c(=O)c(C(C)C)c1O[C@@H]1C[C@H](C)C[C@H](C)C1",
    "RESULT": "> 82000"
  },
  {
    "COMPOUND": "CCc1c(OC2CC(C)CC(C)C2)cc(=O)[nH]c1C (stereo not drawn)",
    "RESULT": 200
  },
  {
    "COMPOUND": "CCc1c(C)[nH]c(=O)c(CO)c1O[C@@H]1C[C@H](C)C[C@H](C)C1",
    "RESULT": "> 826"
  }
]

For the compound `CCc1c(C)[nH]c(=O)c(CC)c1O[C@@H]1C[C@H](C)C[C@H](C)C1` , what selectivity ratio is on record? > 67000

Next entry: `CCc1c(C)[nH]c(=O)c(Br)c1O[C@@H]1C[C@H](C)C[C@H](C)C1` > 28000

* * *

The following compounds are shown together with reported EC50 values.
# System: Human immunodeficiency virus 1
# ASSAY COMMENT: Antiviral activity against HIV1 NL4-3 with Y181C mutant in human TZM-b1 cells assessed as beta-galactosidase activity after 48 hrs by single round replication assay
# Type: functional, organism-based
# CONDITION SUMMARY: Human immunodeficiency virus 1, NL4-3, TZM-b1, 48 h
Write the number in µM without appending the unit.

Here is how some compounds turned out for EC50.
[
  {
    "STRUCTURE AS SMILES": "CCc1c(C)[nH]c(=O)c(CN=[N+]=[N-])c1O[C@@H]1C[C@H](C)C[C@H](C)C1",
    "OUTPUT UNIT": "µM",
    "EC50": 0.206
  },
  {
    "STRUCTURE AS SMILES": "CCc1c(C)[nH]c(=O)c(C(C)C)c1O[C@@H]1C[C@H](C)C[C@H](C)C1",
    "OUTPUT UNIT": "µM",
    "EC50": 0.006
  },
  {
    "STRUCTURE AS SMILES": "CCc1c(C)[nH]c(=O)c(Br)c1O[C@@H]1C[C@H](C)C[C@H](C)C1",
    "OUTPUT UNIT": "µM",
    "EC50": 0.138
  }
]

Pending compound:
Give EC50 (Human immunodeficiency virus 1) of the following compound: `CCc1c(C)[nH]c(=O)c(CC)c1O[C@@H]1C[C@H](C)C[C@H](C)C1` 0.015

Values compiled from ChEMBL document CHEMBL1136985.
